Tested on: TK-10 renal
assay_comment: NCI-60 one-dose screen, 48 h (100 = growth as untreated, 0 = no growth, -100 = all killed)
run_parameters: 10 µM unless noted
Compounds without any hit were thinned out: in the full panel of roughly 83,000, 20% have a hit.
measured_endpoint: growth (%)

>>> measured_number("O=C(Nc1ccc(Cl)c(C(F)(F)F)c1)Nc1ccc(-c2cccnc2)cc1N1CCC(CO)CC1")
22.2
>>> measured_number("c1ccc(-c2n[nH]c(-c3ccccn3)n2)nc1")
116
>>> measured_number("COCCCNc1nc(NC(=O)c2cc(Br)cc(C(F)(F)F)c2)cc(-c2cccnc2)n1")
95.8
>>> measured_number("NC1=NC(=O)NC1(c1ccccc1)c1ccccc1")
92
>>> measured_number("CCOC(=O)C(C(C)=O)c1nc2sc3cc(Cl)c(Cl)cc3n2c(=O)c1C#N (centres undefined)")
145
>>> measured_number("COCCCNc1nc(NC(=O)c2cc(OC)cc(OC)c2)cc(-c2cccnc2)n1")
86.7
>>> measured_number("Nc1ccc(NC(=O)c2ccccc2)c2c1C(=O)c1ccccc1C2=O")
96.1
>>> measured_number("C[C@]12CCc3nc(Nc4ccccc4)sc3C1=CC[C@@H]1[C@@H]2CC[C@]2(C)/C(=N/NC(N)=S)CC[C@@H]12")
38.3
>>> measured_number("COc1cc2c(cc1OCCCN1CCN(CCCOc3cc4c(cc3OC)C(=O)N3C[C@H](F)C[C@H]3C=N4)CC1)N=C[C@@H]1C[C@@H](F)CN1C2=O")
-52.5

###

Tested on: UACC-62 melanoma
assay_comment: NCI-60 one-dose screen, 48 h
run_parameters: 10 µM unless noted
About 83,000 compounds went through this panel and 20% of them were active in at least one assay; those are over-represented in the sample as a whole. Activity calls are given as the source filed them. The calls were made as follows: active = growth percent below 10; inactive = the rest.
Possible outcomes: Yes for active, No for inactive

>>> qualitative_label("COc1ncnc2c(-c3ccccc3)cn(COCc3ccccc3)c12")
"No"
>>> qualitative_label("CC(C)C1=NOC(=O)C1=Cc1cn(-c2ccccc2)nc1-c1cccc([N+](=O)[O-])c1")
"No"
>>> qualitative_label("O=[N+]([O-])c1cccc(/C=C/c2ccc3ccccc3n2)c1")
"No"
>>> qualitative_label("Cc1ccc2c(n1)C(=O)C(Cl)=C(Nc1ccc(N3CCN(C)CC3)cc1)C2=O")
"Yes"
>>> qualitative_label("CCc1ccc(NC(=O)N[C@@H](Cc2cc(F)cc(F)c2)C(=O)N[C@@H]2C(=O)N3C[C@H](O)C[C@H]3C(=O)N3CCOC[C@H]3C(=O)N[C@@H](C)C(=O)N3C[C@H](C)C[C@H]3C(=O)O[C@H]2C)cc1")
"No"
>>> qualitative_label("CC1=CCc2ccccc21")
"No"
>>> qualitative_label("CCOC(=O)C(C(C)=O)c1nc2sc3cc(Cl)c(Cl)cc3n2c(=O)c1C#N (centres undefined)")
"No"
>>> qualitative_label("Cn1cc(-c2noc(-c3cn(C)c4ncccc34)n2)c2cc(Cl)ccc21")
"No"
>>> qualitative_label("COc1cc2c(cc1OC(C)=O)C(=O)CCCC2")
"No"

###

Tested on: HOP-92 NSCLC
assay_comment: NCI-60 one-dose screen, 48 h
run_parameters: 10 µM unless noted
The panel holds about 83,000 compounds, 20% with a hit somewhere; the sample as a whole holds those more often. Active and inactive are the calls of the source. The calls were made as follows: active = growth percent below 10; inactive = the rest.
Outcome codes: active, inactive

>>> qualitative_label("Cn1ncc2c(Nc3ccc(O)cc3)nc(Cl)nc21")
"inactive"
>>> qualitative_label("CC(C)c1ccc(C(=O)Nc2nc3ccc(O)cc3s2)cc1")
"inactive"
>>> qualitative_label("CCN(CC)c1ccc2cc(C(Nc3ccc(C)cc3)c3nnnn3C(C)(C)C)c(=O)oc2c1 (centres undefined)")
"inactive"
>>> qualitative_label("C=C(CN=[N+]=[N-])[C@@H]1CC[C@]2(C)[C@H](CC[C@@H]3[C@H]4[C@H]5OC(=O)[C@@]4(CCC5(C)C)CC[C@]32C)[C@@]1(C)CCC#N")
"inactive"
>>> qualitative_label("COc1ccc(C2CC(c3cc(OC)c(OC)c(OC)c3)=NN2C(C)=O)cc1OCC(=O)Nc1nc2ccc(C(F)(F)F)cc2s1 (centres undefined)")
"active"
>>> qualitative_label("CC1(C)[C@@H](NOCCCN)CC[C@]2(C)[C@H]3C(=O)C=C4[C@@H]5C[C@](C)(C(=O)O)CC[C@]5(C)CC[C@@]4(C)[C@]3(C)CC[C@@H]12")
"active"
>>> qualitative_label("COc1ccc(NC(=S)NNc2ccc(-c3ccc(OC)c(OC)c3)nn2)cc1")
"inactive"
>>> qualitative_label("O=C(Oc1ccc(Cl)cc1[N+](=O)[O-])Oc1ccc(Cl)cc1[N+](=O)[O-]")
"inactive"
>>> qualitative_label("COc1ccc2nc3c(cc2c1)C(=O)CC(c1ccccc1)C3 (centres undefined)")
"inactive"
>>> qualitative_label("C=C(C)[C@@H]1CC[C@]2(C(=O)NCCNCCNC(=O)OC(C)(C)C)CC[C@]3(C)[C@H](CC[C@@H]4[C@@]5(C)CCC(=O)C(C)(C)[C@@H]5CC[C@]43C)[C@@H]12")
"active"
>>> qualitative_label("[2H]C1([2H])CCN(C(=O)C2CC2)c2cc(NS(=O)(=O)c3ccc(-c4cccc(C(N)=O)c4)cc3)ccc21")
"inactive"
>>> qualitative_label("COc1ccc(C(=O)CCC(=O)O)cc1")
"inactive"
>>> qualitative_label("COc1ccc2nc3ccccc3c(NCCNCCO)c2c1")
"active"
>>> qualitative_label("CCCCOC(=O)c1c(C)[nH]c(/C=C2\\N=C(c3ccc[nH]3)C=C2OC)c1C")
"active"
>>> qualitative_label("COc1cc(C)cc2oc3oc(=N)c(C(=O)c4ccccc4)cc3c(=O)c12")
"inactive"
>>> qualitative_label("CCCCCn1c(C)cc(/C=C\\c2ccc3cc(C)ccc3[n+]2C)c1C")
"active"
>>> qualitative_label("COc1ccc2c3ccnc(C(F)(F)F)c3n(CCCCN)c2c1")
"active"
>>> qualitative_label("CCOC(=O)c1nn(C2CCCCO2)c2ccc(NC(=O)CN3CCCC3)cc12 (centres undefined)")
"inactive"
>>> qualitative_label("CC(C)C1=NOC(=O)C1=Cc1cn(-c2ccccc2)nc1-c1ccc(Br)cc1")
"inactive"

###

System: SN12C renal
assay_comment: NCI-60 one-dose screen, 48 h (100 = growth as untreated, 0 = no growth, -100 = all killed)
run_parameters: 10 µM unless noted
About 83,000 compounds went through this panel and 20% of them were active in at least one assay; those are over-represented in the sample as a whole. Calls of active or inactive are those of the source. Rule for the calls: active = growth percent below 10; inactive = the rest.
The following compounds are listed with their measured growth values.
measured_endpoint: growth

>>> result("COc1ncc(-c2ccc3nccc(C#CCCCCC(=O)NO)c3c2)cc1NS(=O)(=O)c1ccc(F)cc1F")
"15% (inactive)"
>>> result("C=C1C(=O)O[C@H]2[C@H]1CC/C(COC(=O)NCc1ccc(Cn3c(=O)sn(-c4ccc(Cl)cc4)c3=O)cc1)=C\\CC[C@@]1(C)O[C@@H]21")
"70.4% (inactive)"
>>> result("c1ccc(-c2nnc(-c3c[nH]c4ncccc34)s2)cc1")
"86.6% (inactive)"
>>> result("CCCCCCCCCCCCCC[n+]1cccc(C(N)=O)c1")
"1.56% (active)"
>>> result("COc1ccc(C(=O)c2nccc3cc(OC)c(OC)cc23)cc1OC")
"72.1% (inactive)"

###

Tested on: OVCAR-3 ovarian
assay_comment: NCI-60 one-dose screen, 48 h
run_parameters: 10 µM unless noted
This is part of a sample that, as a whole, favours compounds with a hit. Of some 83,000 tested, about 20% had one in any assay. Calls of active or inactive are those of the source. The calls were made as follows: active = growth percent below 10; inactive = the rest.
Outcome codes: True for active, False for inactive

>>> qualitative_label("Cc1cc2c(C(C)C)c(O)c(O)c(C=NCc3ccoc3)c2c(O)c1-c1c(C)cc2c(C(C)C)c(O)c(O)c(C=NCc3ccco3)c2c1O")
"False"
>>> qualitative_label("CC1(C)CC[C@]2(C(=O)OC(=O)[C@]34CCC(C)(C)C[C@@H]3C3=CC[C@@H]5[C@@]6(C)CCC(=O)C(C)(C)[C@@H]6CC[C@@]5(C)[C@]3(C)CC4)CC[C@]3(C)C(=CC[C@@H]4[C@@]5(C)CCC(=O)C(C)(C)[C@@H]5CC[C@]43C)[C@H]2C1")
"False"
>>> qualitative_label("O=S(=O)(NCc1ccccc1)c1ncnc2nc[nH]c12")
"False"
>>> qualitative_label("CSc1nc2sc3cc(Cl)c(Cl)cc3n2c(=N)c1C#N")
"False"
>>> qualitative_label("C=C(C)[C@@H]1CC[C@]2(C(=O)NCCNCCNCCN)CC[C@]3(C)[C@H](CC[C@@H]4[C@@]5(C)CC[C@H](O)C(C)(C)[C@@H]5CC[C@]43C)[C@@H]12")
"True"
>>> qualitative_label("CCN(CC)CCCCCCNc1cccc2cc(Br)cnc12")
"False"
>>> qualitative_label("O=C(NCCCNC(=O)OCc1ccc2cccc(O)c2n1)OCc1ccc2cccc(O)c2n1")
"False"
